Value source: patent US9765049B2

test: log P by HPLC on reversed-phase column (C 18), EEC Directive 79/831 Annex V.A8; format: physicochemical; details: Table 1; HPLC, 40° C., 0.1% aqueous formic acid and acetonitrile

compound	logP
Cn1cc(C(=O)N(Cc2cccc3c2C2CCC3C2=C(Cl)Cl)C2CC2)c(C(F)F)n1 (centres unmarked) [I.07]	4.13
Cn1cc(C(=O)N(Cc2cccc3c2C2C=CC3C2)C2CC2)c(C(F)F)n1 (centres unmarked) [I.03]	3.19
Cn1nc(C(F)F)c(C(=O)N(Cc2cccc3c2C2C=CC3C2)C2CC2)c1Cl (centres unmarked) [I.05]	3.70
Cc1cc(C(=O)N(Cc2cccc3c2C2CCC3O2)C2CC2)c(C)o1 (centres unmarked) [I.22]	3.04
Cn1cc(C(=O)N(Cc2cccc3c2C2C=CC3O2)C2CC2)c(C(F)F)n1 (centres unmarked) [I.15]	2.05
Cn1nc(C(F)F)c(C(=S)N(Cc2cccc3c2C2C=CC3O2)C2CC2)c1Cl (centres unmarked) [I.20]	3.17
Cn1nc(C(F)F)c(C(=O)N(Cc2cccc3c2C2C=CC3C2)C2CC2)c1F (centres unmarked) [I.04]	3.55
Cc1cc(C(=O)N(Cc2cccc3c2C2C=CC3O2)C2CC2)c(C)o1 (centres unmarked) [I.16]	2.82
O=C(c1ccsc1Br)N(Cc1cccc2c1C1C=CC2O1)C1CC1 (centres unmarked) [I.21]	2.96
Cn1cc(C(=O)N(Cc2cccc3c2C2C=CC3O2)C2CC2)c(C(F)(F)F)c1 (centres unmarked) [I.17]	2.70
Cn1nc(C(F)F)c(C(=S)N(Cc2cccc3c2C2CCC3C2=C(Cl)Cl)C2CC2)c1Cl (centres unmarked) [I.09]	5.39
Cn1nc(C(F)F)c(C(=S)N(Cc2cccc3c2C2CCC3C2=C(Cl)Cl)C2CC2)c1F (centres unmarked) [I.11]	5.23
Cc1nc(C(F)F)c(C(=O)N(Cc2cccc3c2C2C=CC3O2)C2CC2)s1 (centres unmarked) [I.18]	2.51
Cn1nc(C(F)F)c(C(=O)N(Cc2cccc3c2C2CCC3O2)C2CC2)c1F (centres unmarked) [I.12]	2.55
